Test system: HEK-293T
test: Multiplex assay against HEK293T
Format: toxicity, cell-based
experimental context: human, 48 h, 1 µM, compound concentration 1 uM, replicate 1
Returns satisfied if the recorded Population Hoechst High Intensity Objects (%) is greater than or equal to 2%, and not satisfied otherwise.

Reference set (8 entries):
molecule: CN1CCN(c2nc3cc(C(F)(F)F)ccc3n3cccc23)CC1.O=C(O)/C=C\C(=O)O.O=C(O)/C=C\C(=O)O
label class: satisfied
//
molecule: CCCN1CCC[C@@H]2Cc3n[nH]cc3C[C@H]21.Cl [QUINPIROLE HYDROCHLORIDE]
label class: not satisfied
//
molecule: Cc1ccc(-c2ccc(F)cc2COc2ccc(CCC(=O)O)cc2)cc1
label class: not satisfied
//
molecule: Oc1c(CN2CCN(c3ccccn3)CC2)cc(Cl)c2cccnc12
label class: satisfied
//
molecule: O=S(=O)(c1ccccc1)c1cnc2c(N3CCNCC3)cccc2c1 [INTEPIRDINE]
label class: satisfied
//
molecule: CC1(COc2ccc3c(c2)ncn3-c2ccc3cccc(N4CCC(N)CC4)c3n2)COC1
label class: not satisfied
//
molecule: COc1ccc2c(c1)C(C(=O)N(Cc1ccc(N(C)C)cc1)c1ccc(C(C)C)cc1)CCC2.Cl (stereo not drawn)
label class: not satisfied
//
molecule: CC[C@H]1OC(=O)[C@H](C)[C@@H](O[C@H]2C[C@@](C)(OC)[C@@H](O)[C@H](C)O2)[C@H](C)[C@@H](O[C@@H]2O[C@H](C)C[C@H](N(C)C)[C@H]2O)[C@@]2(C)CC(C)=C(O2)[C@H](C)[C@@H](O)[C@]1(C)O
label class: satisfied

Switching to the query record.
Item CC(=O)NCCc1c(Cc2ccccc2)[nH]c2ccccc12 with Population Hoechst High Intensity Objects (%) of 2% or above? satisfied

---

Test system: U2OS
test: Multiplex assay against U2OS
Assay type: toxicity, cell-based
experimental context: human, 12 h, 10 µM, compound concentration 10 uM, replicate 1
observed property: Population Healthy Nuclei (%)

The following compounds have reported results that may help.
compound: COc1ccc2c(c1)C(C(=O)N(Cc1ccc(N(C)C)cc1)c1ccc(C(C)C)cc1)CCC2.Cl (centres undefined)
target of assay: U2OS
observed property: Population Healthy Nuclei (%)
observed value: 50%
--
compound: CCCN1CCC[C@@H]2Cc3n[nH]cc3C[C@H]21.Cl [QUINPIROLE HYDROCHLORIDE]
target of assay: U2OS
observed property: Population Healthy Nuclei (%)
observed value: 72%
--
compound: N#Cc1c(N)nc(SCc2csc(-c3ccc(Cl)cc3)n2)c(C#N)c1-c1ccc(OCCO)cc1
target of assay: U2OS
observed property: Population Healthy Nuclei (%)
observed value: 40%
--
compound: Oc1c(CN2CCN(c3ccccn3)CC2)cc(Cl)c2cccnc12
target of assay: U2OS
observed property: Population Healthy Nuclei (%)
observed value: 56%
--
compound: CCCC(CCC)C(=O)O
target of assay: U2OS
observed property: Population Healthy Nuclei (%)
observed value: 66%
--
compound: CN(C)CCCc1cc(C(=O)Nc2ccc(-c3ccncc3)cc2)ccc1O.Cl.Cl
target of assay: U2OS
observed property: Population Healthy Nuclei (%)
observed value: 62%
--
compound: Cc1ccc(-c2ccc(F)cc2COc2ccc(CCC(=O)O)cc2)cc1
target of assay: U2OS
observed property: Population Healthy Nuclei (%)
observed value: 61%
--
compound: Cl.Clc1ccc2nsnc2c1NC1=NCCN1 [TIZANIDINE HYDROCHLORIDE]
target of assay: U2OS
observed property: Population Healthy Nuclei (%)
observed value: 61%

Assign Population Healthy Nuclei (%) to the following record: O=S(=O)(c1ccccc1)c1cnc2c(N3CCNCC3)cccc2c1 [INTEPIRDINE] 61%

---

Test system: Fibroblast
test: Multiplex assay against human fibroblast
Type: toxicity, cell-based
experimental context: 48 h, 10 µM, compound concentration 10 uM, replicate 1
observed property: Population Pyknosed Nuclei (%)
Please give a number only; it is taken to be in %.

compound: Cc1ccc(F)cc1C(=O)Nc1ccc(C(=O)N2Cc3cccn3Cc3ccccc32)c(Cl)c1
target of assay: Fibroblast
observed property: Population Pyknosed Nuclei (%)
observed value: 11

compound: O=C(NCC(=O)N1CC[C@H](N[C@H]2CC[C@@](O)(c3ccc(-c4ncccn4)cn3)CC2)C1)c1cccc(C(F)(F)F)c1
target of assay: Fibroblast
observed property: Population Pyknosed Nuclei (%)
observed value: 9

compound: CN1CCN2c3ncccc3Cc3ccccc3C2C1 (stereo not drawn)
target of assay: Fibroblast
observed property: Population Pyknosed Nuclei (%)
observed value: 9

compound: Cl.Clc1ccc2nsnc2c1NC1=NCCN1 [TIZANIDINE HYDROCHLORIDE]
target of assay: Fibroblast
observed property: Population Pyknosed Nuclei (%)
observed value: 17

compound: CCCC(CCC)C(=O)O
target of assay: Fibroblast
observed property: Population Pyknosed Nuclei (%)
observed value: 8

Assign Population Pyknosed Nuclei (%) to the following record: Cc1nc2ccc(Oc3ccc(F)cc3)cc2c(=O)n1C[C@H]1CCCN(C(C)C)C1.Cl 10

Assign Population Pyknosed Nuclei (%) to the following record: CC[C@H]1OC(=O)[C@H](C)[C@@H](O[C@H]2C[C@@](C)(OC)[C@@H](O)[C@H](C)O2)[C@H](C)[C@@H](O[C@@H]2O[C@H](C)C[C@H](N(C)C)[C@H]2O)[C@@]2(C)CC(C)=C(O2)[C@H](C)[C@@H](O)[C@]1(C)O 6

Assign Population Pyknosed Nuclei (%) to the following record: CC(=O)NCCc1c(Cc2ccccc2)[nH]c2ccccc12 10

---

# Lookup of reported Population Fragmented Nuclei (%) keyed by entry
Test system: HEK-293T
test: Multiplex assay against HEK293T
Type: toxicity, cell-based
experimental context: human, 48 h, 1 µM, compound concentration 1 uM, replicate 1
Please give a number only; it is taken to be in %.

compound: COc1cc(C(=O)N(CCCc2ccccc2)Cc2ccc(CC(=O)O)cc2)cc(OC)c1C
observed property: Population Fragmented Nuclei (%)
observed value: 12

Assign Population Fragmented Nuclei (%) to the following record: O=C(O)c1cc2ccccc2c(Cc2c(O)c(C(=O)O)cc3ccccc23)c1O 11

Assign Population Fragmented Nuclei (%) to the following record: CCNC1(C(N)=O)CCN(c2ncnc3c2nc(-c2ccccc2Cl)n3-c2ccc(Cl)cc2)CC1 12

Assign Population Fragmented Nuclei (%) to the following record: CCCn1c(=O)c2[nH]c(C3CCCC3)nc2n(CCC)c1=O 11

Assign Population Fragmented Nuclei (%) to the following record: CSc1ccccc1N1CCN(CCCCCC(=O)NC2CCCc3ccccc32)CC1.Cl (centres undefined) 10

Assign Population Fragmented Nuclei (%) to the following record: COc1ccc2c(c1)C(C(=O)N(Cc1ccc(N(C)C)cc1)c1ccc(C(C)C)cc1)CCC2.Cl (centres undefined) 12

Assign Population Fragmented Nuclei (%) to the following record: CN(C)c1ccnc2sc3c(=O)n(N4CCCCCC4)cnc3c12 13

Assign Population Fragmented Nuclei (%) to the following record: O=S(=O)(c1ccccc1)c1cnc2c(N3CCNCC3)cccc2c1 [INTEPIRDINE] 12

Assign Population Fragmented Nuclei (%) to the following record: CCCN1CCC[C@@H]2Cc3n[nH]cc3C[C@H]21.Cl [QUINPIROLE HYDROCHLORIDE] 16

---

Tested on: U2OS
test: Multiplex assay against U2OS
Type: toxicity, cell-based
experimental context: human, 12 h, 10 µM, compound concentration 10 uM, replicate 1
# Lookup of reported Population Membrane Permeable-Phenotype (%) keyed by entry
Please give a number only; it is taken to be in %.

Enter recorded Population Membrane Permeable-Phenotype (%) with U2OS for Cc1ccccc1C(=O)Nc1ccc(C(=O)N2CCCC(N(C)C)c3ccccc32)cc1.Cl (centres undefined) here. 14

Enter recorded Population Membrane Permeable-Phenotype (%) with U2OS for O=C1COc2nccc(-c3ccccc3F)c2CN1Cc1cc(C(F)(F)F)cc(C(F)(F)F)c1 here. 25

Enter recorded Population Membrane Permeable-Phenotype (%) with U2OS for CCCN1CCC[C@@H]2Cc3n[nH]cc3C[C@H]21.Cl [QUINPIROLE HYDROCHLORIDE] here. 2

Enter recorded Population Membrane Permeable-Phenotype (%) with U2OS for CSc1ccccc1N1CCN(CCCCCC(=O)NC2CCCc3ccccc32)CC1.Cl (centres undefined) here. 67

---

System: Fibroblast
test: Multiplex assay against human fibroblast
Type: toxicity, cell-based
experimental context: 48 h, 10 µM, compound concentration 10 uM, replicate 1
observed property: Total Cell Count
Please respond with just the number, no unit label.

The following compounds have reported results that may help.
compound: CC[C@H]1OC(=O)[C@H](C)[C@@H](O[C@H]2C[C@@](C)(OC)[C@@H](O)[C@H](C)O2)[C@H](C)[C@@H](O[C@@H]2O[C@H](C)C[C@H](N(C)C)[C@H]2O)[C@@]2(C)CC(C)=C(O2)[C@H](C)[C@@H](O)[C@]1(C)O
Total Cell Count: 216
//
compound: CCOc1c2c(c(OCC)c3ncccc13)CN(c1ccc(CS(=O)(=O)NC(=O)Cc3ccccc3OC)cc1C)C2=O
Total Cell Count: 171
//
compound: CSCC[C@H](NC=O)C(=O)N[C@@H](CC(C)C)C(=O)N[C@@H](Cc1ccccc1)C(=O)O
Total Cell Count: 110
//
compound: COc1c(C)cc(NC(=O)c2nn(Cc3ccc(F)cc3)c3c2CN(C(=O)c2ccc[nH]2)C[C@]3(C)C(N)=O)cc1C
Total Cell Count: 166
//
compound: COc1cc(C(=O)N(CCCc2ccccc2)Cc2ccc(CC(=O)O)cc2)cc(OC)c1C
Total Cell Count: 195

Assign Total Cell Count to the following record: O=S(=O)(c1ccccc1)c1cnc2c(N3CCNCC3)cccc2c1 [INTEPIRDINE] 139

Assign Total Cell Count to the following record: CCCn1c(=O)c2[nH]c(C3CCCC3)nc2n(CCC)c1=O 98

Assign Total Cell Count to the following record: Cc1ccc(C(C)(O)c2nc3ccccc3s2)c(C)c1 (stereo not drawn) 156
